target: Alpha-1B adrenergic receptor (Homo sapiens); test: Intrinsic activity at human alpha1B adrenergic receptor expressed in CHOK1 cells co-expressing aequorin assessed as inhibition of agonist induced calcium mobilization preincubated for 15 mins followed by agonist addition measured for 20 secs in presence of coelenterazine H by luminescence assay
Sequence (P35368 whole entry): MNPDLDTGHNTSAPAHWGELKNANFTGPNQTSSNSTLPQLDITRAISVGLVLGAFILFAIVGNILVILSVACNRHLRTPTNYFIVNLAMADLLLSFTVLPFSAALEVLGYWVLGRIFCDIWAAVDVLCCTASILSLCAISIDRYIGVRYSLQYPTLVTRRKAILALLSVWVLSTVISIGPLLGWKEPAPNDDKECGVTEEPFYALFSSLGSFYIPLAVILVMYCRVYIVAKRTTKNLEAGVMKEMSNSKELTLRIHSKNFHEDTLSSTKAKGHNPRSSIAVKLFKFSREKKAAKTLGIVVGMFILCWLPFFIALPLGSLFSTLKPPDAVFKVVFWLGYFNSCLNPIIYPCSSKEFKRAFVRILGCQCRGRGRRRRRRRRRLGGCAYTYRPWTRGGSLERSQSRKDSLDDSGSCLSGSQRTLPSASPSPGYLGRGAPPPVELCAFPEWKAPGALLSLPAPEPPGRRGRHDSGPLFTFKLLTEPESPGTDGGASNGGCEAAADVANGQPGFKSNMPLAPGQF
experimental.readout: EC50 (µM)
Respond with the bare value in µM.

COc1ccc(S(=O)(=O)NC2CCN(CCOc3ccccc3OC)CC2)cc1OC: 0.461
COc1ccccc1OCCN1CCC(CNS(=O)(=O)c2cccc(Cl)c2)CC1: 0.0155
COc1ccccc1OCCN1CCC(CNS(=O)(=O)c2cncc3ccccc23)CC1: 0.515
CCOc1ccccc1OCCN[C@H](C)Cc1ccc(OC)c(S(N)(=O)=O)c1 [TAMSULOSIN]: 0.00013

Field: next compound
Any idea what EC50 came out for COc1ccccc1OCCN1CCC(NS(=O)(=O)c2cncc3ccccc23)CC1 on Alpha-1B adrenergic receptor (Homo sapiens)?
0.608

###

Target: Adrenergic receptor alpha-2 (Rattus norvegicus, UniProt P22086+P19328+P22909)
Sequence (P22086 whole entry): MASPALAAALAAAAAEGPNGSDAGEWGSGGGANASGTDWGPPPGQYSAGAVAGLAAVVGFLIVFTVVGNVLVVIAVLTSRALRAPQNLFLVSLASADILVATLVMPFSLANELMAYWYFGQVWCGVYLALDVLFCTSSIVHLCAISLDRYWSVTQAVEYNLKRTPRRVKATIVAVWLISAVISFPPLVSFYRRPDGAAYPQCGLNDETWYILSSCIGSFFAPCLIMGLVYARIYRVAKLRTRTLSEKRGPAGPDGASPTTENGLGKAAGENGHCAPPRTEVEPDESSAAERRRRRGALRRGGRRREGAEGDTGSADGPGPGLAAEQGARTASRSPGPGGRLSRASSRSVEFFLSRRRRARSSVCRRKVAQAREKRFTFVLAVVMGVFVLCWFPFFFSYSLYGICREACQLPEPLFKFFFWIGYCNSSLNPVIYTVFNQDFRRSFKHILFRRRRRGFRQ
Sequence (P19328 whole entry): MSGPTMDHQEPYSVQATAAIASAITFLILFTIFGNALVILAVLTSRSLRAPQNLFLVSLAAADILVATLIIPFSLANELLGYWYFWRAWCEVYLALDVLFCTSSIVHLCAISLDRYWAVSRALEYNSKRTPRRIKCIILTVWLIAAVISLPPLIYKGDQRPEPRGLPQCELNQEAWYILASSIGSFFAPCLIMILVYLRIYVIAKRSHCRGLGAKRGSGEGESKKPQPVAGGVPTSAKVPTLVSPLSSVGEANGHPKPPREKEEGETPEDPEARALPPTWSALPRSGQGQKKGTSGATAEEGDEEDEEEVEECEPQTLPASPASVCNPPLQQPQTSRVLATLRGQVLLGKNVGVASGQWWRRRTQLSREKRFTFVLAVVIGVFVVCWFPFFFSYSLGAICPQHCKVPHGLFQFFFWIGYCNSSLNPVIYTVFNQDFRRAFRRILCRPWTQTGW
Sequence (P22909 whole entry): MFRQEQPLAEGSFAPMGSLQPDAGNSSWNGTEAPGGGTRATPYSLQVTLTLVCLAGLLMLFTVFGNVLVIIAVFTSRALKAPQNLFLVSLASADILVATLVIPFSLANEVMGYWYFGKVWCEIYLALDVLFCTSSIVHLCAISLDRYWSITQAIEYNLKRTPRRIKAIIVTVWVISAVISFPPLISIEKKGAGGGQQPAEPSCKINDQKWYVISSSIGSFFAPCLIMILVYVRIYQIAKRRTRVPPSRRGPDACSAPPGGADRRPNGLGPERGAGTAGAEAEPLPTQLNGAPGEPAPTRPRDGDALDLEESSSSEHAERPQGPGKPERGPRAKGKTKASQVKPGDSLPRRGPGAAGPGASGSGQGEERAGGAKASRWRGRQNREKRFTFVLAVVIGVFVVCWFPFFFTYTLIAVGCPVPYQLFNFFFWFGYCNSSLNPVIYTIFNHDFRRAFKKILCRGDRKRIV
Experiment: Displacement of [3H]-Clonidine from alpha2 adrenergic receptor in rat brain cerebral cortex membranes by liquid scintillation counting analysis
Type: cell membranes, Membrane
Rule: Ki below 700 nM gives Y, anything at or above gives N.

Reference set, count: 2
COc1ccccc1OCCN1CC[C@@H](NS(=O)(=O)c2cccc(Cl)c2F)C1: N
COc1ccc(S(=O)(=O)NC2CCN(CCOc3ccccc3OC)CC2)cc1OC: N

Bench note: check whether CC(C)Oc1ccccc1OCCN1CC[C@H](NS(=O)(=O)c2cccc(Cl)c2F)C1 shows Ki below 700 nM
N

Bench note: check whether CC(C)Oc1ccccc1OCCN1CCC(CNS(=O)(=O)c2ccc(F)cc2)CC1 shows Ki below 700 nM
Y

Bench note: check whether CC(C)Oc1ccccc1OCCN1CC[C@@H](NS(=O)(=O)c2cccc(Cl)c2F)C1 shows Ki below 700 nM
Y

Bench note: check whether CC(C)Oc1ccccc1OCCN1CCC(CNS(=O)(=O)c2cccc3cccnc23)CC1 shows Ki below 700 nM
N

Bench note: check whether COc1ccccc1OCCN1CC[C@H](NS(=O)(=O)c2cc(Cl)ccc2F)C1 shows Ki below 700 nM
N

Bench note: check whether COc1ccccc1OCCN1CCC(CNS(=O)(=O)c2cccc(Cl)c2F)CC1 shows Ki below 700 nM
Y

Bench note: check whether CC(C)Oc1ccccc1OCCN1CC[C@H](NS(=O)(=O)c2cc(Cl)ccc2F)C1 shows Ki below 700 nM
N

Bench note: check whether CC(C)Oc1ccccc1OCCN1CC[C@@H](NS(=O)(=O)c2cc(Cl)ccc2F)C1 shows Ki below 700 nM
Y

Bench note: check whether COc1ccccc1OCCN1CC[C@@H](NS(=O)(=O)c2cc(Cl)ccc2F)C1 shows Ki below 700 nM
N

Bench note: check whether CC(C)Oc1ccccc1OCCN1CCC(CNS(=O)(=O)c2cccc(Cl)c2F)CC1 shows Ki below 700 nM
N

###

molecular target: Adrenergic receptor alpha-2 (Rattus norvegicus, UniProt P22086+P19328+P22909); assay: Displacement of [3H]-Clonidine from alpha2 adrenergic receptor in rat brain cerebral cortex membranes by liquid scintillation counting analysis; type: cell membranes, Membrane
The entries below are paired with their reported Ki.
Respond with the bare value in nM.

Please give the measured Ki for this molecule: CC(C)Oc1ccccc1OCCN1CCC(NS(=O)(=O)c2cccc(Cl)c2F)CC1
188

###

assay: Selectivity ratio of EC50 for human alpha1B adrenergic receptor expressed in CHOK1 cells co-expressing aequorin assessed as inhibition of agonist induced calcium mobilization to EC50 for alpha1A adrenergic receptor (unknown origin) assessed as inhibition of agonist induced effect; type: cell-based; conditions: cho-k1
experimental.readout: Ratio EC50
Answer with a bare number; do not write a unit.

Known results for compounds:
COc1ccc(S(=O)(=O)NCC2CCN(CCOc3ccccc3OC)CC2)cc1OC: 3.73
COc1ccccc1OCCN1CCC(NS(=O)(=O)c2cncc3ccccc23)CC1: 6.1
CC(C)Oc1ccccc1OCCN1CCC(CNS(=O)(=O)c2cccc(Cl)c2F)CC1: 3.8
COc1ccccc1OCCN1CCC(CNS(=O)(=O)c2cncc3ccccc23)CC1: 3.68
COc1ccccc1OCCN1CCC(CNS(=O)(=O)c2cc(Cl)ccc2F)CC1: 0.08
CC(C)Oc1ccccc1OCCN1CCC(CNS(=O)(=O)c2cccc3cccnc23)CC1: 3.07
COc1ccccc1OCCN1CCC(CNS(=O)(=O)c2cccc(Cl)c2)CC1: 0.13
COc1ccc(S(=O)(=O)NC2CCN(CCOc3ccccc3OC)CC2)cc1OC: 2.4

Field: next compound
Please give the measured Ratio EC50 for this compound: COc1ccccc1OCCN1CCC(CNS(=O)(=O)c2cccc(Cl)c2F)CC1
0.17

###

target: Alpha-1A adrenergic receptor (Homo sapiens, UniProt P35348); test: Intrinsic activity at alpha1A adrenergic receptor (unknown origin) assessed as inhibition of agonist induced effect preincubated for 30 mins followed by agonist addition measured after 5 hrs in presence of CCF4-AM by cell based beta lactamase reporter gene assay
Sequence (P35348 whole entry): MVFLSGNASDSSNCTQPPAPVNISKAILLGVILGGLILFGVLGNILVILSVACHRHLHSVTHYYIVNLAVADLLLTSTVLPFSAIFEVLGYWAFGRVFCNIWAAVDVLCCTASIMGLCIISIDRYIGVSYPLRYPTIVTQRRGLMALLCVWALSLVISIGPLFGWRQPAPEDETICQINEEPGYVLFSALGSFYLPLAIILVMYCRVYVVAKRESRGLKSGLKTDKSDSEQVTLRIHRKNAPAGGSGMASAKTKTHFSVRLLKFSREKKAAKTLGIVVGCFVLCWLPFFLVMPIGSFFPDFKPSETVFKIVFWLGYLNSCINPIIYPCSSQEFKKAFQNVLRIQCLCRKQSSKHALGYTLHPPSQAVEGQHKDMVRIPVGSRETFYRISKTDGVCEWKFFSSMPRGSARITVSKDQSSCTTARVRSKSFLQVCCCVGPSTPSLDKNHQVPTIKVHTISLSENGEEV
Rule: EC50 below 100 nM gives Satisfied, anything at or above gives Not satisfied.

Reference set, count: 3
CC(C)Oc1ccccc1OCCN1CCC(CNS(=O)(=O)c2cccc(Cl)c2F)CC1: Satisfied
COc1ccc(S(=O)(=O)NCC2CCN(CCOc3ccccc3OC)CC2)cc1OC: Not satisfied
COc1ccc(S(=O)(=O)NC2CCN(CCOc3ccccc3OC)CC2)cc1OC: Not satisfied

Bench note: check whether COc1ccccc1OCCN1CCC(CNS(=O)(=O)c2cccc(Cl)c2)CC1 shows EC50 below 100 nM
Not satisfied

Bench note: check whether COc1ccccc1OCCN1CCC(CNS(=O)(=O)c2cc(Cl)ccc2F)CC1 shows EC50 below 100 nM
Not satisfied

Bench note: check whether CC(C)Oc1ccccc1OCCN1CCC(CNS(=O)(=O)c2cccc3cccnc23)CC1 shows EC50 below 100 nM
Satisfied

Bench note: check whether COc1ccccc1OCCN1CCC(CNS(=O)(=O)c2cccc(Cl)c2F)CC1 shows EC50 below 100 nM
Satisfied

Bench note: check whether COc1ccccc1OCCN1CCC(CNS(=O)(=O)c2cncc3ccccc23)CC1 shows EC50 below 100 nM
Not satisfied
